measured.parameter: melting point

> print(dat)
                                   molecule         result
1  COc1cc(CNC(=O)c2nc3scc(COc4ccc(C(=O)O)cc4)c3c(=O)[nH]2)ccc1F  276 to 281 °C
2  Cc1ccc(-c2nc3ccc(C#N)cn3c2CN(C)C(=O)CC(C)C)cc1  151 to 153 °C
3  COc1ccc(C=Cc2nc3c(c(=O)n(C)c(=O)n3C)n2C)cc1OC  230 to 232 °C
4  CC(c1noc(C(F)F)n1)N1C(=O)C2(COc3cc4c(cc32)OCO4)c2c(Cl)cccc21 (stereo unspecified)  179 to 182 °C

Determine its reported melting point: Fc1ccc2sccc2c1
21 to 22 °C

Identify melting point associated with the molecule CCS(=O)(=O)c1ccc(-c2coc3ccc(-c4nnc(C)o4)cc23)cc1
180 to 181 °C

For the molecule COP(=O)(OC)[C@@H](O)[C@H](CC1CCCCC1)NC(=O)[C@H](CC(C)C)NC(=O)CCc1ccccc1 , report melting point.
157 °C

Determine from records and report melting point for CCCN1C(=O)N2CCN=C2c2c1nc(C1CCCC1)n2C
246 to 247 °C
